B1: Hairpin Ribozyme (parent)
chain: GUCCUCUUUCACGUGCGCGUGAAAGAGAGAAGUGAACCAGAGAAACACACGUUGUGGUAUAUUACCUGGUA

# Variants of: B1
# ASSAY COMMENT: self-cleavage, relative activity (ratio to wild type); higher = more cleavage; co-transcriptional
# cutoff 0.3 applies to self-cleavage; >= gives Condition met, < gives Condition not met

{"MUTANT DESIGNATION": "G57A U63G", "LABEL": "Condition not met"}
{"MUTANT DESIGNATION": "U2A G68U", "LABEL": "Condition not met"}
{"MUTANT DESIGNATION": "G13U A45G", "LABEL": "Condition not met"}
{"MUTANT DESIGNATION": "A41G U53C", "LABEL": "Condition met"}
{"MUTANT DESIGNATION": "G13C G32C", "LABEL": "Condition not met"}
{"MUTANT DESIGNATION": "A39C A41G", "LABEL": "Condition met"}
{"MUTANT DESIGNATION": "C4U C48A", "LABEL": "Condition not met"}
{"MUTANT DESIGNATION": "G1C A24C", "LABEL": "Condition met"}
{"MUTANT DESIGNATION": "A26C A64C", "LABEL": "Condition not met"}
{"MUTANT DESIGNATION": "U20G A41C", "LABEL": "Condition met"}
{"MUTANT DESIGNATION": "A30U C48U", "LABEL": "Condition not met"}
{"MUTANT DESIGNATION": "C10G U55C", "LABEL": "Condition not met"}
{"MUTANT DESIGNATION": "A11C C65A", "LABEL": "Condition met"}
{"MUTANT DESIGNATION": "A59G A61G", "LABEL": "Condition not met"}
{"MUTANT DESIGNATION": "G19A U52C", "LABEL": "Condition met"}
{"MUTANT DESIGNATION": "G29U A41G", "LABEL": "Condition not met"}
{"MUTANT DESIGNATION": "G19U U62G", "LABEL": "Condition not met"}
{"MUTANT DESIGNATION": "C16G A41C", "LABEL": "Condition met"}
{"MUTANT DESIGNATION": "A24G A45G", "LABEL": "Condition not met"}
{"MUTANT DESIGNATION": "C10A U67G", "LABEL": "Condition not met"}
{"MUTANT DESIGNATION": "G1C A11G", "LABEL": "Condition not met"}
{"MUTANT DESIGNATION": "A41U C66A", "LABEL": "Condition not met"}
{"MUTANT DESIGNATION": "G17U A45G", "LABEL": "Condition not met"}
{"MUTANT DESIGNATION": "C12U A26U", "LABEL": "Condition met"}
{"MUTANT DESIGNATION": "A45U U53C", "LABEL": "Condition not met"}
{"MUTANT DESIGNATION": "G17U A22C", "LABEL": "Condition met"}
{"MUTANT DESIGNATION": "G17U U67C", "LABEL": "Condition not met"}
{"MUTANT DESIGNATION": "U5A A22C", "LABEL": "Condition met"}
{"MUTANT DESIGNATION": "C12A G56C", "LABEL": "Condition not met"}
{"MUTANT DESIGNATION": "C3G A64G", "LABEL": "Condition not met"}
{"MUTANT DESIGNATION": "G17C G51U", "LABEL": "Condition met"}
{"MUTANT DESIGNATION": "U33C A47U", "LABEL": "Condition not met"}
{"MUTANT DESIGNATION": "U20G U55C", "LABEL": "Condition not met"}
{"MUTANT DESIGNATION": "U2C C16A", "LABEL": "Condition not met"}
{"MUTANT DESIGNATION": "G19A A35C", "LABEL": "Condition met"}
{"MUTANT DESIGNATION": "A43C G69U", "LABEL": "Condition not met"}
{"MUTANT DESIGNATION": "G25A A28U", "LABEL": "Condition met"}
{"MUTANT DESIGNATION": "G17U A41C", "LABEL": "Condition met"}
{"MUTANT DESIGNATION": "C10U A23G", "LABEL": "Condition met"}
{"MUTANT DESIGNATION": "C48A A61G", "LABEL": "Condition not met"}
{"MUTANT DESIGNATION": "A44U U70G", "LABEL": "Condition not met"}
{"MUTANT DESIGNATION": "U7G G27A", "LABEL": "Condition met"}
{"MUTANT DESIGNATION": "G42C G51C", "LABEL": "Condition not met"}
{"MUTANT DESIGNATION": "G21U U60A", "LABEL": "Condition met"}
{"MUTANT DESIGNATION": "C37G A59U", "LABEL": "Condition not met"}
{"MUTANT DESIGNATION": "C4U G15U", "LABEL": "Condition met"}
{"MUTANT DESIGNATION": "G32A U53C", "LABEL": "Condition not met"}
{"MUTANT DESIGNATION": "U7G A43G", "LABEL": "Condition not met"}
{"MUTANT DESIGNATION": "G17U G32A", "LABEL": "Condition not met"}
{"MUTANT DESIGNATION": "U55C A71C", "LABEL": "Condition met"}
{"MUTANT DESIGNATION": "G27C A31U", "LABEL": "Condition not met"}
{"MUTANT DESIGNATION": "G56C U60C", "LABEL": "Condition not met"}
{"MUTANT DESIGNATION": "U14G A49C", "LABEL": "Condition not met"}
{"MUTANT DESIGNATION": "G25A G42U", "LABEL": "Condition not met"}
{"MUTANT DESIGNATION": "U9C G29U", "LABEL": "Condition not met"}
{"MUTANT DESIGNATION": "G19C U70A", "LABEL": "Condition met"}
{"MUTANT DESIGNATION": "A26C C65G", "LABEL": "Condition not met"}
{"MUTANT DESIGNATION": "C12G G17C", "LABEL": "Condition met"}
{"MUTANT DESIGNATION": "C16U A41U", "LABEL": "Condition met"}
{"MUTANT DESIGNATION": "A22C G57A", "LABEL": "Condition not met"}
